Exercise: for every item that follows, state its recorded % of Wild-Type Signal.
molecular target: biotinylated Gβ1γ2 mutant Asn230Ala (rat) (UniProt P54311); assay: phage ELISA, % of wild-type b-βγ
Sequence (P54311 whole entry N230A, chain 1 of 2): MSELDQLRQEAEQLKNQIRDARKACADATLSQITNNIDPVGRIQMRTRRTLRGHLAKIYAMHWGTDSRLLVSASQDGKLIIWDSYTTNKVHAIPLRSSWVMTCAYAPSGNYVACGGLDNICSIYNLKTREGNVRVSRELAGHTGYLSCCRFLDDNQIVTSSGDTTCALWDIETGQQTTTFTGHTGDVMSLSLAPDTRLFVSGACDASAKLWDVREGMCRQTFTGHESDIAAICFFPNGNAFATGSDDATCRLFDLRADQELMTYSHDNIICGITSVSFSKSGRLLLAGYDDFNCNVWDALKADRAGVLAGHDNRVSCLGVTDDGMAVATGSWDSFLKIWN
Sequence (P63212 2-68, chain 2 of 2, further chain): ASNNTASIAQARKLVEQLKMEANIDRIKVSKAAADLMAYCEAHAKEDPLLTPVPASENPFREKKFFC
// units = %; emit number, no label

Q. Please give the documented % of Wild-Type Signal of SCEKRYGIEFCT [phage C4 (…)]
A. 11.5

Q. Dear colleague, please send me the reported % of Wild-Type Signal for LCSKAYLLLGQTC (Group I) [phage 2F (LCSKAYLLLGQTC)] when you can.
A. 27.6

Q. Please report the measured % of Wild-Type Signal for SCGHGLKVQSTIGACA (Group II) [phage 3C (SCGHGLKVQSTIGACA)]
A. 4.1

Q. // fetch % of Wild-Type Signal given entry WCPPKLEQWYDGCA (Group IV) [phage C2 (WCPPKLEQWYDGCA)]
A. 0

Q. Look up % of Wild-Type Signal of SIGKALFILGYPDYD [phage 3.14 (SIGKALFILGYPDYD)] and report it.
A. 22.4

Q. Supply % of Wild-Type Signal value. Item: SCKRTKAQILLAPCT (Group I; also called Cl) [phage C1 (SCKRTKAQILLAPCT)]
A. 19.8

Q. Tell me measured % of Wild-Type Signal for WCPPKAMTQLGIKAC (Group II) [phage C14 (WCPPKAMTQLGIKAC)] please.
A. 60

Q. Please give the documented % of Wild-Type Signal of SCEKRLGVRSCT (Group III) [phage C5 (SCEKRLGVRSCT)]
A. 33.5
